Tested on: biotinyl-Met-oxazolone
measurement-protocol: self-aminoacylation, catalytic enhancement (BMO) (fold over background); higher = more active; k-Seq, kA / k0A0; sequences stand for … in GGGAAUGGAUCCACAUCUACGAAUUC…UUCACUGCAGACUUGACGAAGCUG
This sample holds only a part of the variants without activity.
Respond with class 1 for self-aminoacylation values of 0.8 and above, class 0 for values below.

Use these answered entries as a reference point.
CCACACUUCAAGCCAUCGGUA [Fam1B.1 aminoacylation ribozyme variant] | class 1
CCACACUUCAAGCAACCGGUG [Fam1B.1 aminoacylation ribozyme variant] | class 1
CUACUCUAAACAAUCGGUCUG [Fam1A.1 aminoacylation ribozyme variant] | class 0
AAGUUUGCUAAUAGUCGCAUC [Fam3.1 aminoacylation ribozyme variant] | class 0
AUUCACCUAGGCCAUCGGGUU [Fam2.2 aminoacylation ribozyme variant] | class 1

Prompt: Hello, I need to know if CUACAUCGAACAAUCGGUCUG [Fam1A.1 aminoacylation ribozyme variant] has measured self-aminoacylation not below 0.8. Thanks!
Completion: class 1

Prompt: Also need AUUACCCUGCUCAUCGAGUGU [Fam2.1 aminoacylation ribozyme variant] , thanks.
Completion: class 1

Prompt: Also need CUACUUCACACAAUCGGUCUU [Fam1A.1 aminoacylation ribozyme variant] , thanks.
Completion: class 0
